Provenance of the data: the supplement of paper PMC10724198

Tested on: Saccharomyces cerevisiae
ASSAY_NOTES: protein stability index of tFT-peptide fusion (C-terminal peptide) (PSI (0-1 scale)); higher = more stable (slower turnover)
TEST_CONTEXT: genetic background: wild type; temperature: 30 C
Label scheme for protein stability index: lower than 0.7 is NOT MET, 0.7 and above is MET.

{"MACROMOLECULE_SEQUENCE": "SGHRLTYEFFPT", "CLASS_ASSIGNMENT": "MET"}
{"MACROMOLECULE_SEQUENCE": "SSCWRAWAVNGL", "CLASS_ASSIGNMENT": "NOT MET"}
{"MACROMOLECULE_SEQUENCE": "SFISPFFCTRPV", "CLASS_ASSIGNMENT": "NOT MET"}
{"MACROMOLECULE_SEQUENCE": "PPSPAFTTHLPP", "CLASS_ASSIGNMENT": "NOT MET"}
{"MACROMOLECULE_SEQUENCE": "RFFFFFPCLLAP", "CLASS_ASSIGNMENT": "NOT MET"}
{"MACROMOLECULE_SEQUENCE": "ASPAASSPYGTR", "CLASS_ASSIGNMENT": "MET"}

###

Test system: Saccharomyces cerevisiae;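 note: PSI is a weighted mean of sequencing reads over stability bins, variants kept only with over 10 reads, mCherry proximal and sfGFP distal, peptide attached via GGGS linker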
ASSAY_NOTES: protein stability index of tFT-peptide fusion (C-terminal peptide) (PSI (0-1 scale)); higher = more stable (slower turnover)
TEST_CONTEXT: genetic background: wild type; temperature: 30 C
READOUT_TYPE: protein stability index

{"MACROMOLECULE_SEQUENCE": "VGSDICLGLCLL", "RECORDED_NUMBER": 0.871}
{"MACROMOLECULE_SEQUENCE": "PLHHPPSPRLPP", "RECORDED_NUMBER": 0.617}
{"MACROMOLECULE_SEQUENCE": "VVVFPYCPLPLV", "RECORDED_NUMBER": 0.597}
{"MACROMOLECULE_SEQUENCE": "EAYRVTYPYMYP", "RECORDED_NUMBER": 0.726}
{"MACROMOLECULE_SEQUENCE": "GRCIQHPYKVNI", "RECORDED_NUMBER": 0.679}
{"MACROMOLECULE_SEQUENCE": "LPPLAPSSPPRP", "RECORDED_NUMBER": 0.696}
{"MACROMOLECULE_SEQUENCE": "FGCCCGGGLLGV", "RECORDED_NUMBER": 0.711}
{"MACROMOLECULE_SEQUENCE": "VYLVLRCGSVLV", "RECORDED_NUMBER": 0.443}
{"MACROMOLECULE_SEQUENCE": "SFPYPHRDLVTP", "RECORDED_NUMBER": 0.711}
{"MACROMOLECULE_SEQUENCE": "SYGWYRVRLLDC", "RECORDED_NUMBER": 0.57}
{"MACROMOLECULE_SEQUENCE": "GGGGGGGGAGGV", "RECORDED_NUMBER": 0.698}
{"MACROMOLECULE_SEQUENCE": "LIGMCEAGCSPF", "RECORDED_NUMBER": 0.727}
{"MACROMOLECULE_SEQUENCE": "RLLDLRLYVGKG", "RECORDED_NUMBER": 0.618}
{"MACROMOLECULE_SEQUENCE": "DAGRETGRLVGG", "RECORDED_NUMBER": 0.708}
{"MACROMOLECULE_SEQUENCE": "SHLMETPACSAP", "RECORDED_NUMBER": 0.915}
{"MACROMOLECULE_SEQUENCE": "ACGALAKMILFW", "RECORDED_NUMBER": 0.663}
{"MACROMOLECULE_SEQUENCE": "GVQDVRAGLLEY", "RECORDED_NUMBER": 0.676}
{"MACROMOLECULE_SEQUENCE": "PPPRARPHAPPL", "RECORDED_NUMBER": 0.653}
{"MACROMOLECULE_SEQUENCE": "ASYFPLRLLGFL", "RECORDED_NUMBER": 0.65}
